These entries and their values trace back to paper PMC8025548.

Assay: SBECD-assisted equilibrium solubilization of REM, assayed by HPLC
Assay type: physicochemical
Details: 20 % (w/w) aqueous SBECD solution, pH 1.9
Reported Property: solubility at 24 h

Query: Looking for the measured solubility at 24 h of CCC(CC)COC(=O)[C@H](C)N[P@](=O)(OC[C@H]1O[C@@](C#N)(c2ccc3c(N)ncnn23)[C@H](O)[C@@H]1O)Oc1ccccc1 , can you help?
Result: 7600 to 9700 µg/mL

----------
Assay: SBECD-assisted equilibrium solubilization of REM, assayed by HPLC
Type: physicochemical
Details: 20 % aqueous SBECD solution, pH 1.9
Reported Property: solubility at 24 h (µg/mL)
Just the number please, in µg/mL, no unit attached.

Query: Any idea what its solubility at 24 h is? The compound is CCC(CC)COC(=O)[C@H](C)N[P@](=O)(OC[C@H]1O[C@@](C#N)(c2ccc3c(N)ncnn23)[C@H](O)[C@@H]1O)Oc1ccccc1
Result: 8400
